Target: T1, O9-bP
T1 chain: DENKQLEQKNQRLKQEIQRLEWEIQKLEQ
Test: two-hybrid library CCNG1;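 note: natural log of median RNA to DNA barcode read ratio; higher means stronger binding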
recordedEndpoint: interaction score

binder: DKNKQLKQENQRLEQEIQRLEWEIQKLEQ [O1-bP]
interaction score: 1.31
//
binder: DENKQLEQKNQRLKQKIQRLKWKIQKLKQ [O2-bP]
interaction score: -1.4
//
binder: DKIKQLKQEIQRLEQENQRLEWENQKLEQ [O11-bP]
interaction score: -0.645
//
binder: DENKQLEQEIQRLEQENQRLEWKIQKLKQ [O14-bP]
interaction score: -0.215
//
binder: DKIKQLKQKNQRLKQEIQRLEWKNQKLKQ [O16-bP]
interaction score: -1.13

(I) DEIKQLEQKIQRLKQENQRLEWENQKLEQ [O3-bP]
(II) DEIKQLEQENQRLEQKIQRLKWENQKLEQ [O15-bP]
(III) DKIKQLKQEIQRLEQKNQRLKWKNQKLKQ [O4-bP]
Req: Hey, can you sort those binders up there by interaction score, smallest first? Give the labels in the order specified.
Resp: I, II, III
(I: -1.8, II: -1.06, III: -0.425)
